This collection of values is drawn from paper PMC12387182.

Test: ABTS scavenging activity
Would you mind telling me the reported ABTS^•+ Scavenging IC50 of each entry?
Lab book: enter the figure in mg/L, no units written.

Suppose we examine the compound Cc1cc(C(C)(C)C)c(O)c(C(C)(C)C)c1 [BHT, butylated hydroxytoluene] ; what ABTS^•+ Scavenging IC50 value has been reported?
32.00

Same for Cc1c(C)c2c(c(C)c1O)CC[C@@](C)(CCC[C@H](C)CCC[C@H](C)CCCC(C)C)O2
25.12

Next entry: COc1ccc(O)c(C(C)(C)C)c1 [BHA, butylated hydroxyanisole]
38.59

Please do the same for O=C1O[C@H]([C@@H](O)CO)C(O)=C1O as well.
28.79

Field entry: Cc1c(C)c2c(c(C)c1O)CCC(C)(C(=O)O)O2 (centres unmarked)
53.26
